Each recorded value in this set is attributed to ChEMBL document CHEMBL5107949.

system: Enterococcus faecalis; assay: Antibacterial activity against Enterococcus faecalis clinical isolate 1091563 assessed as inhibition of bacterial growth by CLSI protocol based broth microdilution method; format: functional
Would you mind telling me the reported MIC of each entry?
One number for each entry, in µg/mL.

Check out these entries, answers already filled in.
smiles structure: O=C(O)c1ccc(-c2nn(-c3ccc(C(F)(F)F)cc3)cc2CNc2ccc(Br)c(C(F)(F)F)c2)cc1
MIC / µg/mL: 8
//
smiles structure: Cc1onc(-c2ccccc2)c1C(=O)N[C@@H]1C(=O)N2[C@@H]1SC(C)(C)[C@@H]2C(=O)O
MIC / µg/mL: 64

Lab note: next compound to report on.
response.value for "C[C@@H](O)[C@H]1C(=O)N2C(C(=O)O)=C(S[C@@H]3CN[C@H](C(=O)N(C)C)C3)[C@H](C)[C@H]12" (field: MIC) = 2
